- Tested on: RSV B Washington strain
- PROCEDURE_DETAILS: Assessment of RSV induced CPE in HEp2 cells (RSV B Washington strain)
- Type: cell-based
- CONDITION_LABEL: human respiratory syncytial virus, HEp-2, 144 h; HEp2 cells, 1 MOI, 6 days; read-out: RSV B CPE IC50
MEASUREMENT_KIND: pIC50
Note on pIC50: it is the negative log10 of concentration, concentration in mol/L.

MOLECULE	pIC50
Cc1cccc(C#N)c1NC(=O)c1cc2c(s1)-c1ccccc1N(C(=O)c1ccc(NC(=O)c3cc4c(nc3N3CC5(CCOCC5)C3)CCC4)cc1)CC2	8.42

Quick note, pIC50 for `O=C(Nc1c(F)cccc1F)c1cc2c(s1)-c1ccccc1N(C(=O)c1ccc(NC(=O)c3cccnc3N3CC4(CCOCC4)C3)cc1)CC2` landed at 7.55

Quick note, pIC50 for `O=C(Nc1ccccc1F)c1cc2c(s1)-c1ccccc1N(C(=O)c1ccc(NC(=O)c3cccnc3N3CC4(CCOCC4)C3)cc1F)CC2` landed at 7.55

---

- System: RSV B Washington strain
- PROCEDURE_DETAILS: Assessment of RSV induced CPE in HEp2 cells (RSV B Washington strain)
- Format: cell-based
- CONDITION_LABEL: human respiratory syncytial virus, HEp-2, 144 h; HEp2 cells, 1 MOI, 6 days; read-out: RSV B CPE IC50
MEASUREMENT_KIND: IC50 (nM)
Express it in nM; write the number only.

Example cases with answers are listed next.
COMPOUND	IC50 [nM]
Cc1cnc(N2CC3(CCOCC3)C2)c(C(=O)Nc2ccc(C(=O)N3CCc4cc(C(=O)Nc5c(C)cccc5Cl)sc4-c4ccccc43)cc2)c1 [Example 56]	4.1
CCc1cnc(N2CC3(CCOCC3)C2)c(C(=O)Nc2ccc(C(=O)N3CCc4cc(C(=O)Nc5c(F)cccc5Cl)sc4-c4ccccc43)cc2)c1 [Example 61]	4.1

Quick note, IC50 for Cc1cccc(F)c1NC(=O)c1cc2c(s1)-c1ccccc1N(C(=O)c1ccc(NC(=O)c3cccnc3N3CC4(CCOCC4)C3)cc1)CC2 [Example 25] landed at 20.6

---

- System: RSV B Washington strain
- PROCEDURE_DETAILS: Assessment of RSV induced CPE in HEp2 cells (RSV B Washington strain)
- Type: cell-based
- CONDITION_LABEL: human respiratory syncytial virus, HEp-2, 144 h; HEp2 cells, 1 MOI, 6 days; read-out: RSV B CPE IC50
Fulfilled if IC50 is below 6 nM. Not fulfilled if not; exact matches included in Not fulfilled.

MOLECULE	CAT
Cc1cnc(N2CC3(CCOCC3)C2)c(C(=O)Nc2ccc(C(=O)N3CCc4cc(C(=O)Nc5c(F)cccc5F)sc4-c4ccccc43)cc2)c1	Fulfilled
O=C(Nc1c(F)cccc1Cl)c1cc2c(s1)-c1ccccc1N(C(=O)c1ccc(NC(=O)c3cc4c(nc3N3CC5(CCOCC5)C3)CCCC4)cc1)CC2	Not fulfilled
Cc1cnc(N2CC3(CCOCC3)C2)c(C(=O)Nc2ccc(C(=O)N3CCc4cc(C(=O)Nc5c(C)cccc5C)sc4-c4ccccc43)cc2)c1	Fulfilled
Cc1cnc(N2CCC3(CC2)COC3)c(C(=O)Nc2ccc(C(=O)N3CCc4cc(C(=O)Nc5c(F)cccc5Cl)sc4-c4ccccc43)cc2)c1	Not fulfilled
O=C(Nc1ccccc1F)c1cc2c(s1)-c1ccccc1N(C(=O)c1ccc(NC(=O)c3cc4ccccc4nc3N3CC4(CCOCC4)C3)cc1)CC2	Not fulfilled

Next compound, please.
Asked: Check if IC50 falls below 6 nM for `O=C(Nc1c(F)cccc1Cl)c1cc2c(s1)-c1ccccc1N(C(=O)c1ccc(NC(=O)c3cccnc3N3CC4(CCOCC4)C3)cc1)CC2` .
Given back: Not fulfilled

---

- PROCEDURE_DETAILS: Cell viability: resazurin assay
- Format: cell-based, human
- CONDITION_LABEL: human, HEp2 cells
MEASUREMENT_KIND: CC50 at 5 days

COMPOUND	CC50 at 5 days
O=C(Nc1c(F)cccc1Cl)c1cc2c(s1)-c1ccccc1N(C(=O)c1ccc(NC(=O)c3cc4c(nc3N3CC5(CCOCC5)C3)CCOC4)cc1)CC2 [Example 83]	> 12.8 µM

Quick note, CC50 at 5 days for Cc1cccc(F)c1NC(=O)c1cc2c(s1)-c1ccccc1N(C(=O)c1ccc(NC(=O)c3cc(F)cnc3N3CC4(CCOCC4)C3)cc1)CC2 [Example 68] landed at > 13.9 µM

Quick note, CC50 at 5 days for O=C(Nc1c(F)cccc1Cl)c1cc2c(s1)-c1ccccc1N(C(=O)c1ccc(NC(=O)c3cc4c(nc3N3CC5(CCOCC5)C3)CCC4)cc1)CC2 [Example 76] landed at > 13.1 µM

Quick note, CC50 at 5 days for Cc1cccc(F)c1NC(=O)c1cc2c(s1)-c1ccccc1N(C(=O)c1ccc(NC(=O)c3cc4ccccc4nc3N3CC4(CCOCC4)C3)cc1)CC2 [Example 10] landed at > 13.3 µM

Quick note, CC50 at 5 days for O=C(Nc1c(F)cccc1F)c1cc2c(s1)-c1ccccc1N(C(=O)c1ccc(NC(=O)c3cc4c(nc3N3CC5(CCOCC5)C3)CCC4)cc1F)CC2 [Example 79] landed at > 13.1 µM

Quick note, CC50 at 5 days for COc1ccc(C(=O)Nc2ccc(C(=O)N3CCc4cc(C(=O)Nc5ccccc5F)sc4-c4ccccc43)cc2)c(N2CC3(CCOCC3)C2)n1 [Example 3] landed at > 13.9 µM

---

Collected CC50 at 5 days values appear next to each entry.
- PROCEDURE_DETAILS: Cell viability: resazurin assay
- Assay type: cell-based, human
- CONDITION_LABEL: human, HEp2 cells

MOLECULE	CC50 at 5 days
O=C(Nc1c(F)cc(F)cc1F)c1cc2c(s1)-c1ccccc1N(C(=O)c1ccc(NC(=O)c3cc4ccccc4nc3N3CC4(CCOCC4)C3)cc1)CC2	> 12.9 µM
Cc1cccc(F)c1NC(=O)c1cc2c(s1)-c1ccccc1N(C(=O)c1ccc(NC(=O)c3cc4c(nc3N3CC5(CCOCC5)C3)CCCC4)cc1)CC2	12.5 µM

Quick note, CC50 at 5 days for `C#Cc1cccc(F)c1NC(=O)c1cc2c(s1)-c1ccccc1N(C(=O)c1ccc(NC(=O)c3cc(C)cnc3N3CC4(CCOCC4)C3)cc1)CC2` landed at > 13.8 µM

---

- System: RSV B Washington strain
- PROCEDURE_DETAILS: Assessment of RSV induced CPE in HEp2 cells (RSV B Washington strain)
- Format: cell-based
- CONDITION_LABEL: human respiratory syncytial virus, HEp-2, 144 h; HEp2 cells, 1 MOI, 6 days; read-out: RSV B CPE IC50
t if IC50 is below 20 nM. f if not; exact matches included in f.

MOLECULE	MEASURED_TARGET	CAT
O=C(Nc1c(F)cccc1Cl)c1cc2c(s1)-c1ccccc1N(C(=O)c1ccc(NC(=O)c3cc(C4CC4)cnc3N3CC4(CCOCC4)C3)cc1)CC2	RSV B Washington strain	t
Cc1ccc(C(=O)Nc2ccc(C(=O)N3CCc4cc(C(=O)Nc5c(F)cccc5F)sc4-c4ccccc43)cc2)c(N2CC3(CCOCC3)C2)n1	RSV B Washington strain	t
C#Cc1cccc(F)c1NC(=O)c1cc2c(s1)-c1ccccc1N(C(=O)c1ccc(NC(=O)c3cc(C)cnc3N3CC4(CCOCC4)C3)cc1)CC2	RSV B Washington strain	t
Cc1cnc(N2CCC3(CC2)COC3)c(C(=O)Nc2ccc(C(=O)N3CCc4cc(C(=O)Nc5c(F)cccc5F)sc4-c4ccccc43)cc2)c1	RSV B Washington strain	f
Cc1ccc(NC(=O)c2cc3c(s2)-c2ccccc2N(C(=O)c2ccc(NC(=O)c4cccnc4N4CC5(CCOCC5)C4)cc2)CC3)c(F)c1	RSV B Washington strain	f

Asked: Check if IC50 falls below 20 nM for `O=C(Nc1c(F)cccc1F)c1cc2c(s1)-c1ccccc1N(C(=O)c1ccc(NC(=O)c3cc4ccccc4nc3N3CC4(CCOCC4)C3)cc1)CC2` .
Given back: f

Asked: Check if IC50 falls below 20 nM for `Cc1cccc(F)c1NC(=O)c1cc2c(s1)-c1ccccc1N(C(=O)c1ccc(NC(=O)c3cc4c(nc3N3CC5(CCOCC5)C3)CCOC4)cc1)CC2` .
Given back: t

Asked: Check if IC50 falls below 20 nM for `O=C(Nc1ccccc1F)c1cc2c(s1)-c1ccccc1N(C(=O)c1ccc(NC(=O)c3cc(C4CC4)cnc3N3CC4(CCOCC4)C3)cc1)CC2` .
Given back: f

Asked: Check if IC50 falls below 20 nM for `Cc1cnc(N2CC3(CCOCC3)C2)c(C(=O)Nc2ccc(C(=O)N3CCc4cc(C(=O)Nc5c(F)cc(F)cc5F)sc4-c4ccccc43)cc2)c1` .
Given back: t

Asked: Check if IC50 falls below 20 nM for `Cc1cnc(N2CC3(CCOCC3)C2)c(C(=O)Nc2ccc(C(=O)N3CCc4cc(C(=O)Nc5c(O)cccc5F)sc4-c4ccccc43)cc2)c1` .
Given back: t

Asked: Check if IC50 falls below 20 nM for `O=C(Nc1c(F)cccc1F)c1cc2c(s1)-c1ccccc1N(C(=O)c1ccc(NC(=O)c3cccnc3N3CC4(CCOCC4)C3)cc1F)CC2` .
Given back: f

Asked: Check if IC50 falls below 20 nM for `O=C(Nc1c(F)cccc1F)c1cc2c(s1)-c1ccccc1N(C(=O)c1ccc(NC(=O)c3cc4c(nc3N3CC5(CCOCC5)C3)CCC4)cc1)CC2` .
Given back: t

Asked: Check if IC50 falls below 20 nM for `COc1ccc(NC(=O)c2cc3c(s2)-c2ccccc2N(C(=O)c2ccc(NC(=O)c4cccnc4N4CC5(CCOCC5)C4)cc2)CC3)c(F)c1` .
Given back: t

Asked: Check if IC50 falls below 20 nM for `Cc1cccc(F)c1NC(=O)c1cc2c(s1)-c1ccccc1N(C(=O)c1ccc(NC(=O)c3cc(Cl)cnc3N3CC4(CCOCC4)C3)cc1)CC2` .
Given back: t

Asked: Check if IC50 falls below 20 nM for `Cc1cnc(N2CC3(CCOCC3)C2)c(C(=O)Nc2ccc(C(=O)N3CCc4cc(C(=O)Nc5ccccc5Cl)sc4-c4ccccc43)cc2)c1` .
Given back: f

Asked: Check if IC50 falls below 20 nM for `O=C(Nc1c(F)cccc1Cl)c1cc2c(s1)-c1ccccc1N(C(=O)c1ccc(NC(=O)c3cc4ccccc4nc3N3CC4(CCOCC4)C3)cc1)CC2` .
Given back: t

Asked: Check if IC50 falls below 20 nM for `Cc1cccc(F)c1NC(=O)c1cc2c(s1)-c1ccccc1N(C(=O)c1ccc(NC(=O)c3cc(C4CC4)cnc3N3CC4(CCOCC4)C3)cc1)CC2` .
Given back: f

Asked: Check if IC50 falls below 20 nM for `O=C(Nc1c(F)cccc1Cl)c1cc2c(s1)-c1ccccc1N(C(=O)c1ccc(NC(=O)c3cc4c(nc3N3CC5(CCOCC5)C3)CCC4)cc1)CC2` .
Given back: t

Asked: Check if IC50 falls below 20 nM for `Cc1cc(C(=O)Nc2ccc(C(=O)N3CCc4cc(C(=O)Nc5c(C)cccc5F)sc4-c4ccccc43)cc2)c(N2CC3(CCOCC3)C2)nc1C` .
Given back: t

Asked: Check if IC50 falls below 20 nM for `Cc1ccc(C(=O)Nc2ccc(C(=O)N3CCc4cc(C(=O)Nc5c(F)cccc5Cl)sc4-c4ccccc43)cc2)c(N2CC3(CCOCC3)C2)n1` .
Given back: t

Asked: Check if IC50 falls below 20 nM for `C=Cc1cccc(F)c1NC(=O)c1cc2c(s1)-c1ccccc1N(C(=O)c1ccc(NC(=O)c3cc(C)cnc3N3CC4(CCOCC4)C3)cc1)CC2` .
Given back: t

Asked: Check if IC50 falls below 20 nM for `Cc1cnc(N2CC3(COC3)C2)c(C(=O)Nc2ccc(C(=O)N3CCc4cc(C(=O)Nc5c(C)cccc5F)sc4-c4ccccc43)cc2)c1` .
Given back: f

Asked: Check if IC50 falls below 20 nM for `O=C(Nc1c(F)cccc1Cl)c1cc2c(s1)-c1ccccc1N(C(=O)c1ccc(NC(=O)c3cc4c(nc3N3CC5(CCOCC5)C3)CCC4)cc1F)CC2` .
Given back: t
